system: bitter taste of an aqueous solution of KCl; experiment: Sip and spit bitterness rating of aqueous KCl test solutions; format: in vivo, humans; conditions: Homo sapiens; aqueous KCl 4.85 g/L, 1% EtOH; bitterness scored 0-15 vs KCl standard; dash = none of the tested conc.; read-out: Conc. Where Decrease in Bitter Taste Discerned and p ≦ 0.1
Parameter Measured: minimal effective concentration

| Compound | Result |
| --- | --- |
| CC(C)=CCC/C(C)=C/COC(=O)Cc1ccccc1 | 1 µg/mL |
| CCC(=O)OCCC(C)CCC=C(C)C (stereo not drawn) | 1 µg/mL |
| CC(=O)CCC1=C(C)CCCC1(C)C | 1 µg/mL |
| CCC1(O)C2(C)CCC(C2)C1(C)C (stereo not drawn) | 1 µg/mL |
| CC(O)c1ccccc1 (stereo not drawn) | 1 µg/mL |
| CC(=O)/C=C/C1C(C)=CCCC1(C)C (stereo not drawn) | 0.1 µg/mL |

Reference source for all entries: patent US9872514B2
